Molecular target: human CXCR4 receptor (wild type) (human, UniProt P61073 1-352)
Sequence (P61073 whole entry): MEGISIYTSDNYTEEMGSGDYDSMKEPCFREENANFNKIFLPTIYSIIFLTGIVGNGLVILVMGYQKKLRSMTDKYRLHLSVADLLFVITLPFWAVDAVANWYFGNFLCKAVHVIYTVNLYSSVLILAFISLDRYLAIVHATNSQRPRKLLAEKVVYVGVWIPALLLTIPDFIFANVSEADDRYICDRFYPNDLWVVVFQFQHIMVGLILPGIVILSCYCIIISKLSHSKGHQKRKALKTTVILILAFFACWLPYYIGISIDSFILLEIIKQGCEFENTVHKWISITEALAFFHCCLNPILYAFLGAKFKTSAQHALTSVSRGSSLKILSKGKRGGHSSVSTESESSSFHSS
Experiment: cell-based or functional assay
metric: IC50, [35S]GTPγS binding, NIH3T3/CXCR4 cells (nM)
Give the quantity in nM, number only.

binder	result.value
humanized antibody Hz515H7 VH1 D76N VL2 (antibody, human IgG1, kappa, V domains shown) VH: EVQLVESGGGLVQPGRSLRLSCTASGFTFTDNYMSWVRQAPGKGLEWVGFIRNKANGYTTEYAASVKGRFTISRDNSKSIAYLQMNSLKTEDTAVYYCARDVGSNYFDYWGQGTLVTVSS VL: DIVMTQSPSSLAVSLGERATMSCKSSQSLFNSRTRKNYLAWYQQKPGQSPKLLIYWASARDSGVPARFTGSGSETYFTLTISRVQAEDLAVYYCMQSFNLRTFGQGTKVEIKR	3.86
humanized antibody Hz515H7 VH1 D76N VL2.2 (antibody, human IgG1, kappa, V domains shown) VH: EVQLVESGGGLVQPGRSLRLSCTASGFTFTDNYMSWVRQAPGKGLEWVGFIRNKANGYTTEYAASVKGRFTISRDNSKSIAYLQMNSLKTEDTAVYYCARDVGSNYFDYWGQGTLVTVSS VL: DIVMTQSPDSLAVSLGERATMSCKSSQSLFNSRTRKNYLAWYQQKPGQPPKLLIYWASARDSGVPDRFTGSGSETYFTLTISRVQAEDVAVYYCMQSFNLRTFGQGTKVEIKR	5.19

Here is the next item to consider.
QUERY: Please list IC50, [35S]GTPγS binding, NIH3T3/CXCR4 cells recorded for the binder humanized antibody Hz515H7 VH1 D76N VL2.1 (antibody, human IgG1, kappa, V domains shown) VH: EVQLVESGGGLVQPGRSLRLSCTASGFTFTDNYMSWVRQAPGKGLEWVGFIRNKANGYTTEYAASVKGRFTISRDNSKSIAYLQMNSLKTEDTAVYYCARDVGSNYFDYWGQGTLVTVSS VL: DIVMTQSPDSLAVSLGERATMSCKSSQSLFNSRTRKNYLAWYQQKPGQPPKLLIYWASARDSGVPDRFSGSGSETYFTLTISRVQAEDLAVYYCMQSFNLRTFGQGTKVEIKR
RESULT: 4.05
